Source listed as ChEMBL document CHEMBL1153492.

# assay_protocol: Selectivity index, CC50 for human MT4 cells to EC50 for HIV1 3B
# Type: toxicity, cell-based
# setup_conditions: read-out: Ratio CC50/EC50
measured_attribute: selectivity ratio

Answered cases to consult:
{"columns": ["entry_smiles", "selectivity ratio"],
 "data": [
  ["O=c1[nH]c2ccc(Cl)cc2n1S(=O)(=O)c1c(Cl)cccc1Cl", "> 218"],
  ["N#Cc1cccc(S(=O)(=O)Nc2cc(Cl)ccc2NC(=O)CCl)c1", "< 1"]
]}

# next compound below
// selectivity ratio lookup, key: `O=c1[nH]c2ccc(Cl)cc2n1S(=O)(=O)c1ccc(F)cc1`
≥ 10
